# test_system: FRMPD2-2 (Homo sapiens, UniProt Q68DX3)
# Sequence (Q68DX3 whole entry): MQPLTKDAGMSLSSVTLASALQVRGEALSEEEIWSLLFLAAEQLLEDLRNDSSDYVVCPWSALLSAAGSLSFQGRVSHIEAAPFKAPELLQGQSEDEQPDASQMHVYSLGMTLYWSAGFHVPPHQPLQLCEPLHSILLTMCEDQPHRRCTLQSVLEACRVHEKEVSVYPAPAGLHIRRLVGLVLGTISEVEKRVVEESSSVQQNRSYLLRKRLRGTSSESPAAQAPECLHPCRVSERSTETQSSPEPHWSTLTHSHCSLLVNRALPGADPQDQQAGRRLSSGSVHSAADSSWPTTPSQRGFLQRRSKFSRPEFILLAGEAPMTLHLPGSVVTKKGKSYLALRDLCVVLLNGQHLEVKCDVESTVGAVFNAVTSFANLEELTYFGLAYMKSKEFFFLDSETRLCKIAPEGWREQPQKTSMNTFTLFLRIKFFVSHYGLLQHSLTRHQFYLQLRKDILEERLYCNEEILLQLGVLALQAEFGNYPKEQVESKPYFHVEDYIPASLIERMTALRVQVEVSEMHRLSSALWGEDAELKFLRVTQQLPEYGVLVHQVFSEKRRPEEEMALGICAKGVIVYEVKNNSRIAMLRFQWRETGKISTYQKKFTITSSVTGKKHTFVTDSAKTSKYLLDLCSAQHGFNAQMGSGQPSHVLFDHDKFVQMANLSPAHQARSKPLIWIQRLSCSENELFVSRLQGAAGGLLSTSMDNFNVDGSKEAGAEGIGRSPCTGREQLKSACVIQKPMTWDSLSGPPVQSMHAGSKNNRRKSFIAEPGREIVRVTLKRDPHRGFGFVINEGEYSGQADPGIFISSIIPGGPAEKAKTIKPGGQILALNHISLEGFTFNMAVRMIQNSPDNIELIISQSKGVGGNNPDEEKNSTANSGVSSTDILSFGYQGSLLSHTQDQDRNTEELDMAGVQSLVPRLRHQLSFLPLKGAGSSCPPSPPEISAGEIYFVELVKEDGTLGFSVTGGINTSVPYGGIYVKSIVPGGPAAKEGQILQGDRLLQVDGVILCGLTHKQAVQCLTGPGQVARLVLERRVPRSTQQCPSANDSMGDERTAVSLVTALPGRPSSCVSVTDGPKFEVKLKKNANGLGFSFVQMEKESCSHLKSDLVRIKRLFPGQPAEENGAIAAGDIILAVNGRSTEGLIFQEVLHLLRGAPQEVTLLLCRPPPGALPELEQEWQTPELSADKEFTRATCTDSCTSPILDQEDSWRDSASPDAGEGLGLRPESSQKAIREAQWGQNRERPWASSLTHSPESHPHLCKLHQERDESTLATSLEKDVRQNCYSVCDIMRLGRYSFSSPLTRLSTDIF
# test_name: Holdup assay, FRMPD2-2
# Assay type: binding
*1 amine or outer side, *2 acyl side, *3 side chain or, on linkers, in order; H or OH if unused. Where a SMILES comes first, the peptide text is derived from it. The star is where a group is joined. X1 = O=C(CCCC[C@@H]1SC[C@@H]2NC(=O)N[C@@H]21)NCCCOCCOCCOCCCN*; Suc = O=C(CCC(=O)[*:2])[*:1]
parameter: BI

{"compound": "CC[C@H](C)[C@H](NC(=O)[C@H](CCC(N)=O)NC(=O)[C@@H](NC(=O)[C@H](Cc1c[nH]cn1)NC(=O)[C@H](CCC(N)=O)NC(=O)[C@H](CC(=O)O)NC(=O)[C@H](CCC(=O)O)NC(=O)[C@H](CC(=O)O)NC(=O)CCC(=O)NCCCOCCOCCOCCCNC(=O)CCCC[C@@H]1SC[C@@H]2NC(=O)N[C@@H]21)[C@@H](C)O)C(=O)N[C@H](C(=O)N[C@@H](CCCNC(=N)N)C(=O)N[C@H](C(=O)O)C(C)C)[C@@H](C)O [PTEN_KR] ({X1-Suc}-DEDQHTQITRV-OH)", "meas_value": 0.295}
{"compound": "CC[C@H](C)[C@H](NC(=O)[C@H](CCC(N)=O)NC(=O)[C@@H](NC(=O)[C@H](Cc1c[nH]cn1)NC(=O)[C@H](CCC(N)=O)NC(=O)[C@H](CC(=O)O)NC(=O)[C@H](CCC(=O)O)NC(=O)[C@H](CC(=O)O)NC(=O)[C@H](Cc1ccccc1)NC(=O)[C@@H]1CCCN1C(=O)CCC(=O)NCCCOCCOCCOCCCNC(=O)CCCC[C@@H]1SC[C@@H]2NC(=O)N[C@@H]21)[C@@H](C)O)C(=O)N[C@H](C(=O)N[C@@H](CCCCN)C(=O)N[C@H](C(=O)O)C(C)C)[C@@H](C)O [PTEN_13] ({X1-Suc}-PFDEDQHTQITKV-OH)", "meas_value": 0.254}
{"compound": "CC[C@H](C)[C@H](NC(=O)[C@H](CCC(N)=O)NC(=O)[C@@H](NC(=O)[C@H](Cc1c[nH]cn1)NC(=O)[C@H](CCC(N)=O)NC(=O)[C@H](CC(=O)O)NC(=O)[C@H](CCC(=O)O)NC(=O)[C@H](CC(=O)O)NC(=O)CCC(=O)NCCCOCCOCCOCCCNC(=O)CCCC[C@@H]1SC[C@@H]2NC(=O)N[C@@H]21)[C@@H](C)O)C(=O)N[C@H](C(=O)N[C@@H](CCCCN)C(=O)N[C@H](C(=O)O)C(C)C)[C@@H](C)O", "meas_value": 0.291}
{"compound": "CC[C@H](C)[C@H](NC(=O)[C@H](CCC(N)=O)NC(=O)[C@@H](NC(=O)[C@H](Cc1c[nH]cn1)NC(=O)[C@H](CCC(N)=O)NC(=O)[C@H](CC(=O)O)NC(=O)[C@H](CCC(=O)O)NC(=O)[C@H](CC(=O)O)NC(=O)CCC(=O)NCCCOCCOCCOCCCNC(=O)CCCC[C@@H]1SC[C@@H]2NC(=O)N[C@@H]21)[C@@H](C)O)C(=O)N[C@H](C(=O)N[C@@H](CCCCNC(C)=O)C(=O)N[C@H](C(=O)O)C(C)C)[C@@H](C)O", "meas_value": 0.574}
